tested on: Saccharomyces cerevisiae; assay: protein stability index of tFT-peptide fusion (C-terminal peptide) (PSI (0-1 scale)); higher = more stable (slower turnover); conditions: genetic background: wild type; temperature: 30 C;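 also: PSI is a weighted mean of sequencing reads over stability bins, variants kept only with over 10 reads, mCherry proximal and sfGFP distal, peptide attached via GGGS linker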
Please map values of protein stability index to classes as shown: b0 = under 0.6, b1 = from 0.6 up to 0.7, b2 = 0.7 and over

Sort into band: TWPGRAGGRGAT
b2

Just checking, what class would you give KNRKKIKIVCVK here?
b0

Please let me know in which category the item PPDTPRTQKADT belongs.
b2

Textbook exercise: identify the category of the sequence given here, VCAFCLFFVPLP , according to its measured value.
b0

Where would KTKKRKTKKKTK land among the classes by reported protein stability index?
b2

Assign a bin to PPTPSAPHRTRI
b2

Which bin, given its protein stability index, does NSGSQSQDKQER occupy?
b1

Which protein stability index band matches FESRGEPPDIQV ?
b1

Hello team, could you let me know which band the following sequence falls into: TPLPPLPPHPPS
b2

Entry SSAFFFLLFSLA belongs to which category?
b0

Band for CGRCVRGGRPWG ?
b0

Lab log: CTYSLSVLFVFF — assign protein stability index category
b0

GET /class?item= YKSKQKAQQKAK
b1

Class (by measured protein stability index) for GGGVWWGGWGHW
b2

Which bin should I file RKKKRNKKKMIM under?
b0

Which band does KTKKTKRRHKAE fall in?
b1

Which class holds GAKGRGKERRGK ?
b1

// return the class label for VLLLLLSLLFGV
b0

Classify this sequence: FPMHFRVRCRPV
b1

Hi, small favor: classify RLVSIHDTRESL by its protein stability index when you get a moment.
b2

Lab note: which band did KLVFLLCLNKVF land in?
b0

# bin lookup: classify GRRWKQHPGWVS by its protein stability index
b0

Tag the class for VSVSSFCVLQSC
b0

Lab note: sort KRKKHKRKLVIC into the matching protein stability index band.
b0

State the band of PPTPPPPLPSSF
b2

Quick check: band for PIMESARGFLCV
b1

Class (by measured protein stability index) for PPPPPLPSPTPP
b2

# bin label for KGRFILKCKDIF
b1

For SCFVAWAFCGWY , which protein stability index bin applies?
b0

---

tested on: Saccharomyces cerevisiae; experiment: protein stability index of tFT-peptide fusion (C-terminal peptide) (PSI (0-1 scale)); higher = more stable (slower turnover); details: genetic background: das1 deletion; temperature: 30 C
Metric: protein stability index
Just the number, please, no unit after it.

May I ask what protein stability index has been recorded for GLSLLLLWFKVC ?
0.307

Endpoint output: protein stability index of LHLTFRLAVLYY . Value?
0.293

State the recorded protein stability index for this entry: SVRGGSFLVHLC
0.636

Please give the measured protein stability index for this sequence: WCVCVSMRMIAI
0.201

Give the measured protein stability index of CVVFLWCGGCWV .
0.346

Suppose we examine the sequence EMSIISVLRVIS ; what protein stability index value has been reported?
0.489

Please look up its protein stability index: CLAGALSWLRRG
0.662

Consider the sequence GVAFGLLVWLLG and give its measured protein stability index.
0.357

Look up protein stability index: PPLLLFLSLAFL
0.285

Could you share which protein stability index value was measured for VGLWFLCSLAFS ?
0.34

Reported protein stability index for PPPYPPPPARSL : what is it?
0.673

Look up protein stability index: WSLRFRRMMLRC
0.429

Record request: protein stability index value, item VQLLTRLKTPHP
0.656

Which protein stability index reading was recorded for the sequence WVVVKITAHTAT ?
0.22

Name the recorded protein stability index for LGKSTLYMALNN .
0.611

Could you share which protein stability index value was measured for QLIDVGLLNCAA ?
0.435

---

system: Saccharomyces cerevisiae; experiment: protein stability index of tFT-peptide fusion (C-terminal peptide) (PSI (0-1 scale)); higher = more stable (slower turnover); conditions: genetic background: das1 deletion; temperature: 30 C
Is protein stability index at least 0.6? Then Criterion met. If not, Criterion not met.

Assess whether reported protein stability index for FRFFYLPVSVVA sits at 0.6 or higher.
Criterion not met

Textbook exercise: given the entry CVLSWSLFVVVW , state whether its protein stability index is greater than or equal to 0.6.
Criterion not met

API: above_or_equal(metric=protein stability index, cutoff=0.6) for item KTRQLINKITQM
Criterion met

Could you tell me if the measured protein stability index of CYCSIGCLIIFS reaches 0.6 or more?
Criterion not met

Reported protein stability index at or above 0.6? FLLFFVLRLLPC
Criterion not met

Item RILFSPSTFYLF with protein stability index of 0.6 or above?
Criterion met

# check: protein stability index of SRVSEFVIPLGR is greater than or equal to 0.6
Criterion met

Determine whether measured protein stability index meets or exceeds 0.6 for PFAGRLWVTSSF
Criterion met

---

system: Saccharomyces cerevisiae; assay: protein stability index of tFT-peptide fusion (C-terminal peptide) (PSI (0-1 scale)); higher = more stable (slower turnover); conditions: genetic background: doa10 deletion; temperature: 30 C
I would appreciate it if you labelled entries condition met when protein stability index is 0.4 or higher, otherwise condition not met.

Would you say SPTRTCTAIRTP shows protein stability index at minimum 0.4?
condition met

I'd appreciate it if you could say whether LSRELRFVGFYH has protein stability index at least equal to 0.4.
condition not met

Please indicate if the recorded protein stability index for KYCPCIPLLIAL meets or exceeds 0.4.
condition not met

Kindly determine if protein stability index recorded for FPLPPPGSPPPL is above or exactly 0.4.
condition met

Entry SFPPLPPLPLPP : is its protein stability index no less than 0.4?
condition met

# check: protein stability index of WFLVLLFFWFLL is greater than or equal to 0.4
condition met

Can LSPLPSPLILVV be said to have protein stability index at or above 0.4?
condition not met

Is protein stability index for FILLFGFSHWVW at or above 0.4?
condition not met

Quick check: does FFGVFIFPVSCR have protein stability index greater than or equal to 0.4?
condition not met

Could you verify whether the entry VCRCFPVCLFSF shows protein stability index of no less than 0.4?
condition not met

Reported protein stability index at or above 0.4? WVVVKITAHTAT
condition not met

Say whether VIVIQGFVFVLG shows protein stability index of 0.4 or more.
condition not met

Does the sequence FVICGMLVHWMV have recorded protein stability index that is 0.4 or more?
condition not met

State whether the measured protein stability index reaches 0.4, counting equality as reaching it, for LPAICFWCVLVG
condition not met

Does the reported protein stability index for FFGVLFRVSLFF fall at or above the 0.4 mark?
condition not met

Has ESVPLLIVLHLV a recorded protein stability index greater than or equal to 0.4?
condition not met

// inclusive: protein stability index at least 0.4? input: RVEPYDLARRVL
condition met

Is reported protein stability index greater than or equal to 0.4 here: CVFFCVLVCFLS
condition not met

Could you verify whether the entry SRVSEFVIPLGR shows protein stability index of no less than 0.4?
condition met

Please tell me: is the sequence LCLLIHFWISHL at or over 0.4 in terms of protein stability index?
condition not met

Tell me whether protein stability index is at least 0.4 here: SRFFSSSFYRLC
condition not met

Quick check: does RGGWVVVLGCVG have protein stability index greater than or equal to 0.4?
condition met

Dear colleague, could you confirm whether CVLSWSLFVVVW has protein stability index at or above 0.4?
condition not met

In plain terms: is recorded protein stability index at least 0.4 for VRINLLFVWFSR ?
condition not met

Can GTHWARLGWLLA be said to have protein stability index at or above 0.4?
condition not met

Determine whether this sequence has protein stability index no lower than 0.4: LVFFAYLIRGAL
condition not met

Does the reported protein stability index for ISVRKTFLIVLC fall at or above the 0.4 mark?
condition not met

# check: protein stability index of GACRVSSCVVVC is greater than or equal to 0.4
condition not met

Does the reported protein stability index for RAQQRVKERYIE fall at or above the 0.4 mark?
condition met

Hi team, for ERFILVGMFGSW , is the recorded protein stability index at or above 0.4?
condition met

Check the entry PGSIGVVIAVRS : does protein stability index equal or exceed 0.4?
condition not met

# check: protein stability index of APEWGGGDEWWG is greater than or equal to 0.4
condition met

Would you say IREYSIRIKRLQ shows protein stability index at minimum 0.4?
condition not met

---

Kindly state protein stability index for each of the entries shown.
system: Saccharomyces cerevisiae; experiment: protein stability index of tFT-peptide fusion (C-terminal peptide) (PSI (0-1 scale)); higher = more stable (slower turnover); conditions: genetic background: cdc53-1; temperature: 37 C
// return just the number, without any unit appended

What value of measured protein stability index is listed for PALYLSLWFLFP ?
0.606

Given the entry VIVIQGFVFVLG , report its measured protein stability index.
0.426

# protein stability index lookup, item FDWLFFFVNFVV
0.511

Request the reported protein stability index associated with YAFLWCVFYLSF
0.235

May I ask what protein stability index has been recorded for WAFVVCGAVFFW ?
0.358

Value lookup for protein stability index; key = LLLFLHSTLTCR
0.543

Any idea what protein stability index was measured for VFYWGGVLCGWG ?
0.502

Look up protein stability index: ERFILVGMFGSW
0.717

Values were extracted from the supplement of paper PMC10724198.
